# Target Desc: Human immunodeficiency virus type 1 integrase (Human immunodeficiency virus 1, UniProt Q7ZJM1)
# Sequence (Q7ZJM1 whole entry): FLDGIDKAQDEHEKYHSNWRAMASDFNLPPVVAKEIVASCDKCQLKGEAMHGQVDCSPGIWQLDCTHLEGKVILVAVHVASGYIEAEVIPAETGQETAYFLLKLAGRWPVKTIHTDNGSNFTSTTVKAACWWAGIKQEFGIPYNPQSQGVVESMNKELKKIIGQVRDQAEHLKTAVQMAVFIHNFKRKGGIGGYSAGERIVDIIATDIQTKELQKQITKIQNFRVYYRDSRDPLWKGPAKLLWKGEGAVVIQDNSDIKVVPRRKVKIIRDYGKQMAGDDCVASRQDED
pIC50: −log10 of the molar value.
Please note: Condition met applies when pIC50 is 5 or greater, and Condition not met applies otherwise.

INSERT INTO results (smiles_notation, cat) VALUES
  ('COc1c(C(=O)N2CCN(CCCNC(=O)c3cc(O)c(O)c(O)c3)CC2)nc(Cc2ccc(C)cc2)n(C)c1=O', 'Condition met'),
  ('COc1c(C(=O)N2CCN(CCCNC(=O)c3cc(O)c(O)c(O)c3)CC2)nc(Cc2ccc(F)cc2)n(C)c1=O', 'Condition not met'),
  ('COc1c(C(=O)N2CCN(CCCNC(=O)c3cc(O)c(O)c(O)c3)CC2)nc(Cc2ccccc2)n(C)c1=O', 'Condition met');

Input line: Exam item: decide whether the reported pIC50 for `COc1c(C(=O)N2CCN(CCCNC(=O)c3ccc(O)c(O)c3)CC2)nc(Cc2ccc(F)cc2)n(C)c1=O` is at least 5.
Output line: Condition not met

Input line: Evaluate `COc1c(C(=O)N2CCN(CCCNC(=O)c3cc(O)c(O)c(O)c3)CC2)nc(Cc2ccc(Cl)cc2)n(C)c1=O` : pIC50 at minimum 5?
Output line: Condition met

Input line: Could you verify whether the entry `COc1c(C(=O)N2CCN(CCCNC(=O)c3ccc(O)c(O)c3)CC2)nc(Cc2ccc(O)cc2)n(C)c1=O` shows pIC50 of no less than 5?
Output line: Condition not met
